experimental_target: glucocorticoid receptor (GR) (Homo sapiens)
Construct: endogenous in cells; host or cells: HeLa (ATCC) cell lysate supernatant
Sequence (P04150 1-777): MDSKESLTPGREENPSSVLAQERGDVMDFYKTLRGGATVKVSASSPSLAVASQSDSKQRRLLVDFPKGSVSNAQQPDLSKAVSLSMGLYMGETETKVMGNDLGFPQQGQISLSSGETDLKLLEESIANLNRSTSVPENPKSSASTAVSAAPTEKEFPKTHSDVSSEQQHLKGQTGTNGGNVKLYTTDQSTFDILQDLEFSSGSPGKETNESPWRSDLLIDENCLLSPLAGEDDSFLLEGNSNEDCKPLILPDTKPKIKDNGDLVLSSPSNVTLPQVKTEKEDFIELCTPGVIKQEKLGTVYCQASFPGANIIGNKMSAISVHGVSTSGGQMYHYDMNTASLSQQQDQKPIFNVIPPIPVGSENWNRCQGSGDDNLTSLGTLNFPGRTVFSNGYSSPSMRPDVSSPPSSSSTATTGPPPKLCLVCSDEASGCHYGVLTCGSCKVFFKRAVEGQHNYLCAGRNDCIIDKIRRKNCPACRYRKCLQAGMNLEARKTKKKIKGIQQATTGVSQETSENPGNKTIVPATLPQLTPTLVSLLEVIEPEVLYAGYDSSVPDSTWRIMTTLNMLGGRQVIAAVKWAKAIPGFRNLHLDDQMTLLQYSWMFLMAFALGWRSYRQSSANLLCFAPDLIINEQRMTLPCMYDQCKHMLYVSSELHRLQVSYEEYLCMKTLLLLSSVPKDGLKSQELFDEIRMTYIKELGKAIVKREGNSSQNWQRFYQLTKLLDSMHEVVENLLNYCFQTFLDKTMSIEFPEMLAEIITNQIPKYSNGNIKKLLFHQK
protocol: Ligand binding assay (GR BIND), 3H-dexamethasone displacement, HeLa cell lysate
experimental_parameters: Table 1; HeLa cell lysate, 3H-DEX
Procedure: Binding Buffer: TEGM (10 mM Tris-HCl, 1 mM EDTA, 10% glycerol, 1 mM beta-mercaptoethanol, 10 mM Sodium Molybdate, pH 7.2) 50% HAP Slurry: Calbiochem Hydroxylapatite, Fast Flow, in 10 mM Tris, pH 8.0 and 1 mM EDTA. […] Phenol red-free Trypsin-EDTA is diluted in the same PBS 1:10. […] The cells are counted at this point, then diluted to the appropriate concentration and split into flasks or dishes for further culturing (Usually 1:3 to 1:6 dilution). […]
measured_attribute: Ki (nM)

P. CCS(=O)(=O)NCc1c(F)cccc1CC[C@]1(O)CCC2=Cc3c(cnn3-c3ccc(F)cc3)C[C@@]21C
Q. C[C@]12Cc3cnn(-c4ccc(F)cc4)c3C=C1CC[C@@]2(O)CCc1ccc(F)cc1C#N
R. CCS(=O)(=O)Nc1ccccc1CC[C@]1(O)CCC2=Cc3c(cnn3-c3ccc(F)cc3)C[C@@]21C
S. CC(C)[C@@H](C)NC(=O)c1c(F)cccc1CC[C@]1(O)CCC2=Cc3c(cnn3-c3ccc(F)cc3)C[C@@]21C
### Prompt Order all 4 entries above by recorded Ki, highest first, lowest last. Give the order by naming the labels one after another as requested.
### Response R, S, P, Q
(R: 2.77 nM, S: 1.2 nM, P: 0.62 nM, Q: 0.17 nM)

---

experimental_target: human GR (Homo sapiens)
Sequence (P04150 1-777): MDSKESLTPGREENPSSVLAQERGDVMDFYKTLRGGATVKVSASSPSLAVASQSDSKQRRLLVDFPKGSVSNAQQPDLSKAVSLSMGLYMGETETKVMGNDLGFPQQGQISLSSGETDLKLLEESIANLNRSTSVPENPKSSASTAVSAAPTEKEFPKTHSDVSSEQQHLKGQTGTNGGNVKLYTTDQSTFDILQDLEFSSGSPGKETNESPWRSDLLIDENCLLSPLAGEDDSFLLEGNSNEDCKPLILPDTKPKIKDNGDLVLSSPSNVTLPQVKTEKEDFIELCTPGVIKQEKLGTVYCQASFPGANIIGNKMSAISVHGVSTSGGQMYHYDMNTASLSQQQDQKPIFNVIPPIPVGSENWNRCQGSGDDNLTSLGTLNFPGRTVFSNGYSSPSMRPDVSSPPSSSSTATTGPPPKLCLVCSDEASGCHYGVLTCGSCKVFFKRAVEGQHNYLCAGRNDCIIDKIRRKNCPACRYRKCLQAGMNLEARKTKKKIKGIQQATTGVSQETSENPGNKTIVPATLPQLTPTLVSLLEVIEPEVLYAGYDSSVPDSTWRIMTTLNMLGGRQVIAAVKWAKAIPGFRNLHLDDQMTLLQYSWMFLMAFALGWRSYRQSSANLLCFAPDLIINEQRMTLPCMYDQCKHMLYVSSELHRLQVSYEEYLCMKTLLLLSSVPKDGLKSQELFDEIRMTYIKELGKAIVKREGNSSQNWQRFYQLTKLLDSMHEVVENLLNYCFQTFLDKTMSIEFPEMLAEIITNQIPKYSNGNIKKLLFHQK
protocol: Transrepression Assay (GITAR), TNFα-β-lactamase reporter gene in U937 cells
Assay type: cell-based
Set-up: U937 cells contain an endogenous glucocorticoid receptor (GR); endogenous in cells; host or cells: U937 cells stably transfected with the TNF-α promoter/β-lactamase reporter only
experimental_parameters: Table 1; separation of GITAR Emax over GRAMMER Emax
measured_attribute: GITAR > GRAMM % SEP (%)

Some solved entries appear below for comparison.
INSERT INTO assay_data (smiles_input, observed) VALUES
  ('C=CCNC(=O)c1ccccc1CC[C@]1(O)CCC2=Cc3c(cnn3-c3ccc(F)cc3)C[C@@]21C', 25),
  ('CC(C)CNC(=O)c1ccccc1CC[C@]1(O)CCC2=Cc3c(cnn3-c3ccc(F)cc3)C[C@@]21C', 37),
  ('C[C@]12Cc3cnn(-c4ccc(F)cc4)c3C=C1CC[C@@]2(O)CCc1ccccc1N1CCC1=O', 17);

1. COC(=O)C(C)(C)NC(=O)c1c(F)cccc1CC[C@]1(O)CCC2=Cc3c(cnn3-c3ccc(F)cc3)C[C@@]21C
2. C[C@]12Cc3cnn(-c4ccc(F)cc4)c3C=C1CC[C@@]2(O)CCc1cccc(Cl)c1CC(N)=O
### Prompt Could you determine which record has the numerically smaller GITAR > GRAMM % SEP? Candidates: 1 and 2 Return value: the label identifying the chosen record.
### Response 2
(2: 21%, 1: 44%)

1. C[C@]12Cc3cnn(-c4ccc(F)cc4)c3C=C1CC[C@@]2(O)CCc1ccc(F)cc1C(N)=O
2. C[C@]12Cc3cnn(-c4ccc(F)c(F)c4)c3C=C1CC[C@@]2(O)CCc1cccc(F)c1C(N)=O
### Prompt Could you determine which record has the numerically smaller GITAR > GRAMM % SEP? Candidates: 1 and 2 Return value: the label identifying the chosen record.
### Response 2
